Listed next: entries and their corresponding GI50.
# Test system: SNB-78
# assay comment: NCI tumour cell line growth inhibition, 48 h
Active and inactive are the calls of the source. Rule as the data show it: active = GI50 up to about 1.1 µM and inactive = higher.
quantity kind: GI50

{"columns": ["compound", "quantity kind", "measurement"],
 "data": [
  ["CC1=C(O)C(=O)C2C(=O)C1C(C)C2c1ccc(Cl)cc1 (stereo not drawn)", "GI50", "> 100 µM (inactive)"],
  ["COc1ccc(C(O)C(c2ccc(OCc3ccccc3)cc2)c2ccc(OCc3ccccc3)cc2)cc1 (stereo not drawn)", "GI50", "> 100 µM (inactive)"],
  ["O=CN/C=C/c1ccccc1", "GI50", "> 100 µM (inactive)"]
]}

----------
# System: DMS-273
# assay comment: NCI tumour cell line growth inhibition, 48 h
Active and inactive are the calls of the source. Rule as the data show it: active = GI50 up to about 1.1 µM and inactive = higher.
Outcomes: true (1) (active), false (0) (inactive)

{"columns": ["molecule", "qualitative label"],
 "data": [
  ["Nc1nc(N)c2nc(CNc3ccc(C(=O)NC(CCCNC(=O)c4ccccc4C(=O)O)C(=O)O)cc3)cnc2n1 (stereo not given)", "true (1)"],
  ["CN(C)C(=O)OC1C(=O)N(C)c2ccc(Cl)cc2C2(c3ccccc3)N1C2(Cl)Cl (stereo not given)", "false (0)"],
  ["CN1CCc2c1nc(-c1ccc(Cl)cc1)c1c2N(C)CC1", "false (0)"],
  ["COC(=O)[C@@]1(C(C)CC(=O)O)CCCCC1=O (stereo not given in full)", "false (0)"],
  ["CC1(C)C(=O)C(O)=CC2C1=CCC1C2(C)C(=O)CC2(C)C(C(C)(O)C(=O)CC(O)C(C)(C)O)C(O)CC12C (stereo not given)", "false (0)"]
]}

----------
# Tested on: LXFL 529
# assay comment: NCI tumour cell line growth inhibition, 48 h
The source made the active and inactive calls. No stated cut-off is given here; in the data, active = GI50 up to about 1.1 µM and inactive = higher.

{"columns": ["molecule", "GI50"],
 "data": [
  ["COc1ccc(/C(Cl)=C(\\C=O)c2ccc(Cl)c(Cl)c2)cc1OC", "3.55 µM (inactive)"],
  ["O=C(CC(=O)N1N=C(c2ccccc2)C(/N=N/c2ccc(C(=O)O)cc2)C1=O)Nc1ccc(F)cc1 (stereo not given)", "23.5 µM (inactive)"],
  ["COc1ccc2c(c1)c(Cc1c(C)n(C)c3ccc(OC)cc13)c(C)n2C", "> 100 µM (inactive)"],
  ["Cn1c(=O)cc2[nH]c3ccccc3n2c1=O", "42.8 µM (inactive)"],
  ["COC12C=C(C)C(CC1)CC2C(=O)O (stereo not given)", "> 100 µM (inactive)"],
  ["O=C(COc1ccc(/C=C/C(=O)c2ccc(Cl)cc2)cc1)Nc1c(Cl)cccc1Cl", "78.7 µM (inactive)"],
  ["O=c1nc(-c2ccccc2)c2c3c(cccn13)CCC2", "> 100 µM (inactive)"],
  ["CCOC(=O)NC(=O)c1cn(CCOC(=O)NCCCCCCNC(=O)OCCn2cc(C(=O)NC(=O)OCC)c(=O)[nH]c2=O)c(=O)[nH]c1=O", "> 100 µM (inactive)"],
  ["N#CC1(C#N)C2C=CC(c3coc4cccc2c34)C1(C#N)C#N (stereo not given)", "8.87 µM (inactive)"],
  ["Cc1nc(-n2nc(-c3ccccc3)cc2-c2ccccc2)sc1C(/C=C/c1ccc([N+](=O)[O-])cc1)=N/NC(N)=S", "24.1 µM (inactive)"]
]}
